Experiment: Plasma stability, mouse plasma
Format: in vitro ADME
Settings: plasma (lithium heparin)
Bridge positions count the residues as written; N and C are the ends. Ends that are not written are not given here.
reported.property: remaining at 24 h, 6.25 µg/mL (%)

substance="GCPPGYKSGVDCSPGSECKWGCYAVDGRRYGGYGADSGVGS-OH (disulfide 2-18, 12-22 (inferred)) [K57chemFE]" measured_result=22

###

Biological target: human C5 (Homo sapiens)
Sequence (P01031 19-673 limits assumed): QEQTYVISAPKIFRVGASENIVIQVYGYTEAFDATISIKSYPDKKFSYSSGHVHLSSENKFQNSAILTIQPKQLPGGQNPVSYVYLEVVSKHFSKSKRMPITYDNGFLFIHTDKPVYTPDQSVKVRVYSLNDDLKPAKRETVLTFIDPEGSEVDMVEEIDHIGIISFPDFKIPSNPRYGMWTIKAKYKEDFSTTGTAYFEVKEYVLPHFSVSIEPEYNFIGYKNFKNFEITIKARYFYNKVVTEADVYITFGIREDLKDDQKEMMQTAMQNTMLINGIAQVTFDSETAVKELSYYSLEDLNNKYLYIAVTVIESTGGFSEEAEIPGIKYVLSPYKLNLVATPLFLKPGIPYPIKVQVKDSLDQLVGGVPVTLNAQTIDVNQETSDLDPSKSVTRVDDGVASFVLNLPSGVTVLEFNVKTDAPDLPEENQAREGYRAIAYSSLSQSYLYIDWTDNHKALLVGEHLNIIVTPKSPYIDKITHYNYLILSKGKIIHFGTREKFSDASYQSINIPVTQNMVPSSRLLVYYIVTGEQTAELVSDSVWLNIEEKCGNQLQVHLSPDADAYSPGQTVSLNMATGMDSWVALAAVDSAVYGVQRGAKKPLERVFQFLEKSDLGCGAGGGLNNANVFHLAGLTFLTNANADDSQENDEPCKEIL
Sequence (P01031 678-1676 limits assumed): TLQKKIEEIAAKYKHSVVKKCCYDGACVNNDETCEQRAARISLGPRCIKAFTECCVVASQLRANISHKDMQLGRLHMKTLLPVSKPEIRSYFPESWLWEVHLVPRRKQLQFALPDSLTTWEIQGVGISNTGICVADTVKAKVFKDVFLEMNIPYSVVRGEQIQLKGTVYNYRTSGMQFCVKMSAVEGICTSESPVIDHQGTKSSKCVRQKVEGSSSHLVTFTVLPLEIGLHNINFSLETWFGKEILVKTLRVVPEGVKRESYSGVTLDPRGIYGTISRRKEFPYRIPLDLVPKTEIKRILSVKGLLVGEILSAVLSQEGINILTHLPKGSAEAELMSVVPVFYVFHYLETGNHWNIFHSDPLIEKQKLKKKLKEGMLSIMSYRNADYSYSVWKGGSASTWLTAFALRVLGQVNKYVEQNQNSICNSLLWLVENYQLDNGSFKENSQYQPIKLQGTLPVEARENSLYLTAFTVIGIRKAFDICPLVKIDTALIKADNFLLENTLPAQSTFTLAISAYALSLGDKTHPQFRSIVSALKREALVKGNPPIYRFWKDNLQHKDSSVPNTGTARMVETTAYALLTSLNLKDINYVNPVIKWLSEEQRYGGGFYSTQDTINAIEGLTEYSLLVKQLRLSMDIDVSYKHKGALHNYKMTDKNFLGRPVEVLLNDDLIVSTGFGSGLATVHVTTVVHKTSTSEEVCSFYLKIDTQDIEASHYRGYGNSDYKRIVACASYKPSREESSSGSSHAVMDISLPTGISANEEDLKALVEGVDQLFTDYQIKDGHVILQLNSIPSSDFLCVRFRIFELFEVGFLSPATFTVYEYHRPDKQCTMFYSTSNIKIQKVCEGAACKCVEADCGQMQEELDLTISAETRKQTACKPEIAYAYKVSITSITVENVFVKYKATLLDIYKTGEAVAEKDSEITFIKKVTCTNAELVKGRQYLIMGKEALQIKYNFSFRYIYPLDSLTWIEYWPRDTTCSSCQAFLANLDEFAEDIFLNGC
Test: SPR multi-cycle kinetics, binding to human C5
Conditions: KD, peptide after reduction and capping of cysteines with iodoacetamide (IAM)
pKd: −log10 of the molar value. Ends that are not written are not given here. * marks the point of attachment. Cam = NC(=O)C*
reported.property: pKd

substance="GC(Cam)PPGYKSGVDC(Cam)SPGSEC(Cam)KWGC(Cam)YAVDGRRYGGYGADSGVGS-OH [K57chemFE reduced and capped]" assay_target="human C5 (Homo sapiens)" reported_property=pKd measured_result=7.12

###

Test: Plasma pharmacokinetics after intravenous bolus
Type: in vivo, Sprague Dawley rats
Details: male, Sprague-Dawley, rat, 1 mg/kg
Bridge positions count the residues as written; N and C are the ends. * marks the point of attachment. Palmitoyl = CCCCCCCCCCCCCCCC(=O)*
reported.property: half-life (h)

substance="Palmitoyl-GSSSGCPPGYKSGVDCSPGSECKWGCYAVDGRRYGGYGADSGVGS-OH (disulfide 6-22, 16-26 (inferred)) [K57chemFE-palmitoyl]" value_units=h measured_result=1.6

###

Test: Plasma pharmacokinetics after intravenous bolus
Type: in vivo, Sprague Dawley rats
Settings: male, Sprague-Dawley, rat, 10 mg/kg
Bridge positions count the residues as written; N and C are the ends. Ends that are not written are not given here.
reported.property: half-life (min)

substance="GCPPGYKSGVDCSPGSECKWGCYAVDGRRYGGYGADSGVGS-OH (disulfide 2-18, 12-22 (inferred)) [K57chemFE]" measured_result=17

###

Assay: Plasma stability, human plasma
Type: in vitro ADME
Conditions: plasma (lithium heparin)
Bridge positions count the residues as written; N and C are the ends. Ends that are not written are not given here.
reported.property: remaining at 24 h, 6.25 µg/mL (%)

substance="GCPPGYKSGVDCSPGSECKWGCYAVDGRRYGGYGADSGVGS-OH (disulfide 2-18, 12-22 (inferred)) [K57chemFE]" measured_result=76

###

Experiment: Plasma pharmacokinetics after intravenous bolus
Format: in vivo, Sprague Dawley rats
Settings: male, Sprague-Dawley, rat, 1 mg/kg
Bridge positions count the residues as written; N and C are the ends. * marks the point of attachment. Palmitoyl = CCCCCCCCCCCCCCCC(=O)*
reported.property: clearance

substance="Palmitoyl-GSSSGCPPGYKSGVDCSPGSECKWGCYAVDGRRYGGYGADSGVGS-OH (disulfide 6-22, 16-26 (inferred)) [K57chemFE-palmitoyl]" measured_result="0.8 mL/min/kg"

###

Experiment: Plasma stability, rat plasma
Assay type: in vitro ADME
Conditions: plasma (lithium heparin)
Bridge positions count the residues as written; N and C are the ends. Ends that are not written are not given here.
reported.property: remaining at 24 h, 6.25 µg/mL

substance="GCPPGYKSGVDCSPGSECKWGCYAVDGRRYGGYGADSGVGS-OH (disulfide 2-18, 12-22 (inferred)) [K57chemFE]" reported_property="remaining at 24 h, 6.25 µg/mL" measured_result=56%

###

Test: Plasma pharmacokinetics after intravenous bolus
Assay type: in vivo, Sprague Dawley rats
Conditions: male, Sprague-Dawley, rat, 10 mg/kg
Bridge positions count the residues as written; N and C are the ends. Ends that are not written are not given here.
reported.property: clearance (mL/min/kg)

substance="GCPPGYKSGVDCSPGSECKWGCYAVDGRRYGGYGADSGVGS-OH (disulfide 2-18, 12-22 (inferred)) [K57chemFE]" measured_result=10.6

Data origin, for the record: paper doi:10.1101/2021.06.16.448769v1
